- Tested on: biotinyl-Leu-oxazolone
- assay.text: self-aminoacylation, catalytic enhancement (BLO) (fold over background); higher = more active; k-Seq, kA / k0A0; sequences stand for … in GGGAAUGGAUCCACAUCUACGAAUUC…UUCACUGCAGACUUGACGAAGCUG
Fewer inactive variants are shown than the library holds.
Criterion: self-aminoacylation meeting or surpassing 2. Met: rule met. Not met: rule not met.

Consider the worked cases shown below.
- sequence.code: "AUUACCCUGGGUAUCGAGUGA [Fam2.1 aminoacylation ribozyme variant]"
  category.label: "rule met"
- sequence.code: "CCUCACUUCAAGCAAUCGGUA [Fam1B.1 aminoacylation ribozyme variant]"
  category.label: "rule not met"

Prompt line: Does CUACUUCAUACAAUCGGGCUG [Fam1A.1 aminoacylation ribozyme variant] have a reported self-aminoacylation of at least 2?
Response line: rule not met

Prompt line: Does AUGACCCUGGACAUCGAGUGA [Fam2.1 aminoacylation ribozyme variant] have a reported self-aminoacylation of at least 2?
Response line: rule met

Prompt line: Does AUUACCCUGGUUAUCGAGUUA [Fam2.1 aminoacylation ribozyme variant] have a reported self-aminoacylation of at least 2?
Response line: rule not met

Prompt line: Does AAGUUUGCUAUUAGUCUCAAG [Fam3.1 aminoacylation ribozyme variant] have a reported self-aminoacylation of at least 2?
Response line: rule not met

Prompt line: Does AUUAUCCUGGUCAUCCAGUGA [Fam2.1 aminoacylation ribozyme variant] have a reported self-aminoacylation of at least 2?
Response line: rule met

Prompt line: Does AUUACCCUGACCAUCGAGUGA [Fam2.1 aminoacylation ribozyme variant] have a reported self-aminoacylation of at least 2?
Response line: rule met

Prompt line: Does AUUACCCUGGGCAUCGGGUGA [Fam2.1 aminoacylation ribozyme variant] have a reported self-aminoacylation of at least 2?
Response line: rule met

Prompt line: Does AUUCACCUGGGACAUCGGGUG [Fam2.2 aminoacylation ribozyme variant] have a reported self-aminoacylation of at least 2?
Response line: rule met

Prompt line: Does AAGCUUGCUAAUAGUCGAAAG [Fam3.1 aminoacylation ribozyme variant] have a reported self-aminoacylation of at least 2?
Response line: rule not met

Prompt line: Does AUUACCCUGGUCACCGCGUGA [Fam2.1 aminoacylation ribozyme variant] have a reported self-aminoacylation of at least 2?
Response line: rule met

Prompt line: Does AUUACCCUGAUAAUCGAGUGA [Fam2.1 aminoacylation ribozyme variant] have a reported self-aminoacylation of at least 2?
Response line: rule met

Prompt line: Does UUUGACCUAGGUCAUCGGGUG [Fam2.2 aminoacylation ribozyme variant] have a reported self-aminoacylation of at least 2?
Response line: rule met

Prompt line: Does AUUCACCUGGGUCAACGGGUG [Fam2.2 aminoacylation ribozyme variant] have a reported self-aminoacylation of at least 2?
Response line: rule met

Prompt line: Does CCACACUUCAAGCAAUCGCGC [Fam1B.1 aminoacylation ribozyme variant] have a reported self-aminoacylation of at least 2?
Response line: rule met

Prompt line: Does CCACACUUCAAGAAAUCUGUC [Fam1B.1 aminoacylation ribozyme variant] have a reported self-aminoacylation of at least 2?
Response line: rule not met

Prompt line: Does CGACUUCAAAGAAUCGGUCUG [Fam1A.1 aminoacylation ribozyme variant] have a reported self-aminoacylation of at least 2?
Response line: rule not met

Prompt line: Does CCACCCUUCAACCAAUCGGUC [Fam1B.1 aminoacylation ribozyme variant] have a reported self-aminoacylation of at least 2?
Response line: rule not met

Prompt line: Does CUACUUCAAAAAAUCUGUCUG [Fam1A.1 aminoacylation ribozyme variant] have a reported self-aminoacylation of at least 2?
Response line: rule not met
